Molecular target: T1, CFP-ARC5 (AqTNKS) (Amphimedon queenslandica)
T1 chain: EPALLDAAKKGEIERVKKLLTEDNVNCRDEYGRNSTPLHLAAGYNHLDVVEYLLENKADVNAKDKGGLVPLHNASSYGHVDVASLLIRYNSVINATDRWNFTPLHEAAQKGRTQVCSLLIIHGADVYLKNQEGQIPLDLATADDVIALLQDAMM
Assay: FRET
No end group written: not given here. YFP = yellow fluorescent protein
Recorded metric: Kd (nM)
The reply should be a number in nM, with the unit left off.

Input: Please report the recorded Kd for {YFP}-REAGDGEE [YFP-REAGDGEE] .
Output: 98.5

Sourced from paper PMC9688111
